So I've got a bunch of compounds here, and I need their T/C values.
- Tested on: BDF1 mice, P388 leukemia ip, median survival T/C
- ASSAY OVERVIEW: NCI In Vivo Anticancer Drug Screen. Data for tumor model P388 Leukemia (intraperitoneal) in B6D2F1 (BDF1) mice
- APPLIED CONDITIONS: endpoint: median survival time; dose: 50.0 mg/kg/injection; schedule: Q01DX009 (ip); vehicle: saline with Tween-80; higher = longer survival
Inconclusive results and toxic doses are left out.

Please fill in: T/C reported for CCOc1cccc(/C=N/n2c(-c3ccccc3Cl)nc3ccccc3c2=O)c1O = 90 % of control

O=C1c2cccnc2C(=O)c2c(O)ccc(O)c21 yielded T/C of 99 % of control

Record summary for CCOCc1c(COc2ccc(OC)cc2)n(CC#CCOc2ccc(OC)cc2)c2ccc(Br)cc12 : reported T/C = 101 % of control

Further cases:
T/C reported for this compound Cc1csc(NC(O)C(Cl)(Cl)Cl)n1 (centres undefined) : 98 % of control

* * *

- Test system: BDF1 mice, P388 leukemia ip, median survival T/C
- ASSAY OVERVIEW: NCI In Vivo Anticancer Drug Screen. Data for tumor model P388 Leukemia (intraperitoneal) in B6D2F1 (BDF1) mice
- APPLIED CONDITIONS: endpoint: median survival time; dose: 100.0 mg/kg/injection; schedule: Q04DX003 (ip); vehicle: saline with Tween-80; higher = longer survival
Inconclusive results and toxic doses are left out.
Give T/C for every item shown.

Below are worked cases with known answers.
T/C measured on O=C(CN1CCOCC1)Nc1cccc(C(F)(F)F)c1 = 86 % of control

Item: CN(C)C(=S)N=Nc1c(O)[nH]c2ccccc12 | T/C: 100 % of control

Query CC(=O)c1ccccc1NC=O yields T/C of 100 % of control

Next item in the queue.
The measured T/C associated with CCCSCCCCSCCC reads 109 % of control

The origin of these recorded values is PubChem BioAssay AID328.
